The binders listed here are annotated with their pKd.
# tested.on: T1, EsCas13d, nuclease-dead (Eubacterium siraeum, UniProt B0MS50, R295A;H300A;R849A;H854A)
# T1 sequence: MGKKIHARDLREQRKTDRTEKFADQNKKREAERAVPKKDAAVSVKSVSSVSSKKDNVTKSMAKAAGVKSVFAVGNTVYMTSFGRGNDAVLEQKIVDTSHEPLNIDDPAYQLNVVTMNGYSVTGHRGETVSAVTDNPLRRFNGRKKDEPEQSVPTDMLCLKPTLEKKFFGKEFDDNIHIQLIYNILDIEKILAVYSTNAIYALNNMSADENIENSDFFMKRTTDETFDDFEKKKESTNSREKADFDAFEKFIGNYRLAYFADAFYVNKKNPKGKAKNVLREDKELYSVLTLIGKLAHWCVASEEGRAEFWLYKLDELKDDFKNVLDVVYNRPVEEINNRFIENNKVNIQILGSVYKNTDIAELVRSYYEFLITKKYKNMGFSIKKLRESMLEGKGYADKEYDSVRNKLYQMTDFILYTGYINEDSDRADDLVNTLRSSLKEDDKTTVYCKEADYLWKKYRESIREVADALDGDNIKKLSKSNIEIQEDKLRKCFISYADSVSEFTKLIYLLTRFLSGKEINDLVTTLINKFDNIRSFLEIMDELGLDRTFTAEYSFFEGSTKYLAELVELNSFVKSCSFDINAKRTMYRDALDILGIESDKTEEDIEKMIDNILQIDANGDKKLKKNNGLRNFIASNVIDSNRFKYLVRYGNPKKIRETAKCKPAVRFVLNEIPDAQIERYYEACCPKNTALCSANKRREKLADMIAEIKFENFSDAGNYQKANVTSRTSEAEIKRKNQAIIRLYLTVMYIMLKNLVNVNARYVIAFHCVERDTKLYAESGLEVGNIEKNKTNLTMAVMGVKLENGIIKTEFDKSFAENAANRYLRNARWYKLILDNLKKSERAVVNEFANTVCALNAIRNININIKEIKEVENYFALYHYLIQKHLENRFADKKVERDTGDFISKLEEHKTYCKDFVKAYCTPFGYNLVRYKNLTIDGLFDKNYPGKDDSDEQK
# assay.explanation: crRNA (strand 1, pre-loaded); Mg2+; 40 mM Tris-HCl pH 7.5, 150 mM NaCl, 6 mM MgCl2, 1 mM DTT, 0.1% Tween-20, 0.2 mg/ml BSA; 25 C; 10 min per concentration, then washed
# experimental.context: tags: His6-TwinStrep-SUMO cleaved; N-terminal SNAP kept (SNAP-Surface 488); label: 3' end held by stalled T7 RNA polymerase
Friendly reminder that pKd comes from taking -log10 of the concentration in mol/L.

Observe how each entry below is paired with its result.
| binder | value.kind | value.observed |
| --- | --- | --- |
| target 1 MT 5'PFS GGC 3'PFS CAG (mixed) RNA 1: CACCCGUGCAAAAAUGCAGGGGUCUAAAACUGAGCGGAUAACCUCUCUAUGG RNA 2: GGGAAUGGAUCCACAUCUACGAAUUCGGCCCAUAGAGAGGUUAUCCGCUCACAGAGAUCGGAAGAGCACACGU | pKd | 7.59 |
| target 1 insG 3' of 14,insG 3' of 4 (mixed) RNA 1: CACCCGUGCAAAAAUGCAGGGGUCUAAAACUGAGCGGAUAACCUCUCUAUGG RNA 2: GGGAAUGGAUCCACAUCUACGAAUUCGUACCAUAGAGAGGGUUAUCCGCGUCACCGAGAUCGGAAGAGCACACGU | pKd | 8.12 |
| target 1 U11C,A18U (mixed) RNA 1: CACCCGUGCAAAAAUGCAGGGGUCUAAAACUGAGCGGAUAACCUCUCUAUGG RNA 2: GGGAAUGGAUCCACAUCUACGAAUUCGUACCAUUGAGAGGCUAUCCGCUCACCGAGAUCGGAAGAGCACACGU | pKd | 7.35 |
| target 1 insC 3' of 17,insG 3' of 14 (mixed) RNA 1: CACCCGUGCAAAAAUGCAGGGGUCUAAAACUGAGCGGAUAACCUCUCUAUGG RNA 2: GGGAAUGGAUCCACAUCUACGAAUUCGUACCAUAGCAGAGGGUUAUCCGCUCACCGAGAUCGGAAGAGCACACGU | pKd | 7.42 |
| target 2 MT 5'PFS AUG 3'PFS UAC (mixed) RNA 1: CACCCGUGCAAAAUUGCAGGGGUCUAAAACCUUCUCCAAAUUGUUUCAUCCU RNA 2: GGGAAUGGAUCCACAUCUACGAAUUCAUGAGGAUGAAACAAUUUGGAGAAGUACAGAUCGGAAGAGCACACGU | pKd | 7.90 |
| target 1 insA 3' of 5,insC 3' of 1 (mixed) RNA 1: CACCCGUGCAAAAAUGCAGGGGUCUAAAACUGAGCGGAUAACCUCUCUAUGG RNA 2: GGGAAUGGAUCCACAUCUACGAAUUCGUACCAUAGAGAGGUUAUCCGACUCACCCGAGAUCGGAAGAGCACACGU | pKd | 8.08 |

Task item: Could you share which pKd value was measured for target 3 G4U,C6A (mixed) RNA 1: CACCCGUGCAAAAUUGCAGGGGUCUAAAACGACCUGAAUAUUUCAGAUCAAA RNA 2: GGGAAUGGAUCCACAUCUACGAAUUCGUUUUUGAUCUGAAAUAUUAAUGUCUGCAGAUCGGAAGAGCACACGU ?
Reply: 7.53

Task item: What about target 1 insG 3' of 19,insC 3' of 1 (mixed) RNA 1: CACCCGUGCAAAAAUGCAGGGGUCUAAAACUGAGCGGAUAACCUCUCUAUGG RNA 2: GGGAAUGGAUCCACAUCUACGAAUUCGUACCAUGAGAGAGGUUAUCCGCUCACCCGAGAUCGGAAGAGCACACGU ?
Reply: 7.23
